TGT: P. falciparum apicoplast DNA polymerase (Pf-apPOL) (Plasmodium falciparum)
METHOD_SUMMARY: Fluorescence-based high-throughput DNA polymerase assay (molecular beacon), primary screen and dose-response
Type: biochemical
CONDITION_CONTEXT: DRC-2; 40'; concentration 5
PROPERTY: % inhibition Apol 40' (%)
Respond with the bare value in %.

[
  {
    "MOLECULE": "O=c1[nH]c2ccc(Br)cc2c(-c2ccccc2)c1C1=NNC(c2ccco2)C1 (stereo not shown) [KU0045540]",
    "QUANTITY_UNIT": "%",
    "ASSAY_VALUE": 33
  },
  {
    "MOLECULE": "COc1ccc(C)cc1NC(=O)Cn1ccc2c(=O)[nH]ccc21 [Molecule 15, COc1ccc(cc1NC(=O)Cn1ccc2c1cc[nH]c2=O)C]",
    "QUANTITY_UNIT": "%",
    "ASSAY_VALUE": 28
  },
  {
    "MOLECULE": "OC(C#Cc1ccccc1)c1ccco1 (stereo not shown) [Molecule 95, OC(c1ccco1)C#Cc1ccccc1]",
    "QUANTITY_UNIT": "%",
    "ASSAY_VALUE": 44
  },
  {
    "MOLECULE": "CC(C)(C)OC(=O)COc1ccc2cc(-c3ccccc3)c(=O)oc2c1 [Molecule 81]",
    "QUANTITY_UNIT": "%",
    "ASSAY_VALUE": -3
  }
]

# lookup: % inhibition Apol 40' of CN(C)C1C(c2ccccc2)=C(c2ccccc2)SC(c2ccccc2)C1[N+](=O)[O-] (stereo not shown) [KU0268387] 25

====

TGT: P. falciparum apicoplast DNA polymerase (Pf-apPOL) (Plasmodium falciparum, UniProt Q8ILY1)
Sequence (Q8ILY1 entry or part of it): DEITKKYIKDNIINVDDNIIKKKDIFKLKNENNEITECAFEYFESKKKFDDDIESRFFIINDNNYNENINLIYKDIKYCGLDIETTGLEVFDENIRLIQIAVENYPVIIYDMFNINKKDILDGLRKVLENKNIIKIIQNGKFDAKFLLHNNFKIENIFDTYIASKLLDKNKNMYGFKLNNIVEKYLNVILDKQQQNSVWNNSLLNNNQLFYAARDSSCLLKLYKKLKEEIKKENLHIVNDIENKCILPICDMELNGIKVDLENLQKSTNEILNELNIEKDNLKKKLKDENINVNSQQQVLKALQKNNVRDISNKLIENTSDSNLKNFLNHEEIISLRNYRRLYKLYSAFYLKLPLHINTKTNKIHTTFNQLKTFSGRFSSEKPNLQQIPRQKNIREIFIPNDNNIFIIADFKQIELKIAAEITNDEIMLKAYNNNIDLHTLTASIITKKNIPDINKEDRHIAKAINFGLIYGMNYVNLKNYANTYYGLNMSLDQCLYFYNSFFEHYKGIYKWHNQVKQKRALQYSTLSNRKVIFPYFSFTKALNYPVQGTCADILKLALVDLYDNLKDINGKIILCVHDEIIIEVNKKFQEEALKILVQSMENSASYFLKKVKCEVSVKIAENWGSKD
METHOD_SUMMARY: Fluorescence-based high-throughput DNA polymerase assay (molecular beacon), primary screen and dose-response
Format: biochemical
CONDITION_CONTEXT: DRC-1; 10'; conc 5
Recorded measurements of % inhibition Apo pol 10', one per entry
Lab note: write values as number then unit, every time.

In the examples that follow, each entry is paired with its recorded % inhibition Apo pol 10'.
[
  {
    "COMPOUND": "COC(=O)c1sc(-c2ccc(C(C)(C)C)cc2)cc1NC(=O)CCC(=O)O [Molecule 87]",
    "% inhibition Apo pol 10'": "30.0237%"
  },
  {
    "COMPOUND": "O=C1NN(c2ccc(Cl)c(Cl)c2)C(=O)/C1=C/c1ccc(-c2ccc3c(c2)C(=O)OC3)o1 [Molecule 90]",
    "% inhibition Apo pol 10'": "68.8597%"
  },
  {
    "COMPOUND": "Cc1cccc(NC(=O)Cn2ccc3c(=O)[nH]ccc32)c1C [Molecule 11, O=C(Cn1ccc2c1cc[nH]c2=O)Nc1cccc(c1C)C]",
    "% inhibition Apo pol 10'": "26.2157%"
  },
  {
    "COMPOUND": "COc1ccccc1C1CC(=O)Oc2cc3c(cc21)OCO3 (centres unmarked) [KU0104502]",
    "% inhibition Apo pol 10'": "35.5684%"
  },
  {
    "COMPOUND": "C=CCOc1c(Br)cc(Br)cc1/C=C1\\SC(=N)NC1=O [KU0051640]",
    "% inhibition Apo pol 10'": "-1.099%"
  }
]

# lookup: % inhibition Apo pol 10' of C=CC1=C(C)c2cc3[nH]c(cc4nc(cc5[nH]c(cc1n2)c(C)c5CCC(=O)O)C(CCC(=O)O)=C4C)c(C)c3C=C [Molecule 91] 90.2247%

Entry CCOc1nc2cccc(C(=O)OC(C)OC(=O)OC3CCCCC3)c2n1Cc1ccc(-c2ccccc2-c2nnn[nH]2)cc1 (centres unmarked) [Molecule 94] please 16.1591%

Entry Cc1cc(C)c2c(c1)C1C=CCC1C(c1ccc(C(=O)O)cc1)N2 (centres unmarked) [Molecule 102] please 62.6778%

====

TGT: P. falciparum apicoplast DNA polymerase (Pf-apPOL) (Plasmodium falciparum)
METHOD_SUMMARY: Fluorescence-based high-throughput DNA polymerase assay (molecular beacon), primary screen and dose-response
Format: biochemical
CONDITION_CONTEXT: 'DNA Pol' (screen value); unit not given; 90 min, 10 µM
DNA Pol under 60 gets y, anything at or over 60 gets n.

Examples from the recorded data:
[
  {
    "COMPOUND": "Cc1nc(C)c2c(n1)N(CC1CCCCC1)C(=O)CC2 [KU0218606]",
    "CLASSIFICATION": "y"
  },
  {
    "COMPOUND": "Cc1cc2[nH]c(C(=O)Nc3ccc(F)cc3)c(CN3CCOCC3)c2s1 [Molecule 60]",
    "CLASSIFICATION": "y"
  },
  {
    "COMPOUND": "CC(=O)OCC1=C(C(=O)[O-])N2C(=O)[C@@H](NC(=O)Cc3cccs3)[C@H]2SC1.[Na+] [Molecule 73]",
    "CLASSIFICATION": "n"
  },
  {
    "COMPOUND": "O=C1CSC2=NC3=C(CCc4ccccc43)C(c3cccs3)N12 (centres unmarked) [Molecule 59, O=C1CSC2=NC3=C(C(N12)c1cccs1)CCc1c3cccc1]",
    "CLASSIFICATION": "n"
  },
  {
    "COMPOUND": "COc1ccc(C2CC(c3ccc(Cl)cc3Cl)Nc3nc(N)nn32)cc1OC (centres unmarked) [Molecule 43]",
    "CLASSIFICATION": "y"
  },
  {
    "COMPOUND": "Cc1ccsc1Cn1c(C)ccc1C [Molecule 70, Cc1ccsc1Cn1c(C)ccc1C]",
    "CLASSIFICATION": "n"
  },
  {
    "COMPOUND": "C#CC(C=CC)OC(=O)c1ccccc1C(=O)O (centres unmarked) [Molecule 61, CC=CC(OC(=O)c1ccccc1C(=O)O)C#C]",
    "CLASSIFICATION": "n"
  },
  {
    "COMPOUND": "CCCc1ccc(Oc2coc3cc(OC)ccc3c2=O)cc1 [KU0193249]",
    "CLASSIFICATION": "n"
  }
]

# TODO verify DNA Pol < 60 strictly for this compound: Cn1nc(-c2nc(-c3ccccc3)no2)c2c1CCN(C(=O)Cc1cccs1)C2 [Molecule 58] y

Entry COc1ccccc1CC(=O)N1CCc2c(nc3cc(-c4ccccc4Cl)[nH]n3c2=O)C1 [Molecule 49] please y

====

Recorded measurements of % inhibition Apo pol 10', one per entry
TGT: P. falciparum apicoplast DNA polymerase (Pf-apPOL) (Plasmodium falciparum)
METHOD_SUMMARY: Fluorescence-based high-throughput DNA polymerase assay (molecular beacon), primary screen and dose-response
Format: biochemical
CONDITION_CONTEXT: DRC-1; concentration 2.5; 10'
Respond with the bare value in %.

In the examples that follow, each entry is paired with its recorded % inhibition Apo pol 10'.
[
  {
    "MOLECULE_SMILES": "Cc1cc(C)nc(Nc2nc(CC(=O)Nc3nc(-c4ccco4)cs3)cs2)n1",
    "TGT": "P. falciparum apicoplast DNA polymerase (Pf-apPOL) (Plasmodium falciparum)",
    "QUANTITY_UNIT": "%",
    "% inhibition Apo pol 10'": -6.381
  },
  {
    "MOLECULE_SMILES": "COc1cc(/C=C2\\C(=O)N(c3ccc(C(=O)O)cc3)N=C2C(F)(F)F)ccc1OCC(C)C",
    "TGT": "P. falciparum apicoplast DNA polymerase (Pf-apPOL) (Plasmodium falciparum)",
    "QUANTITY_UNIT": "%",
    "% inhibition Apo pol 10'": 27.3475
  },
  {
    "MOLECULE_SMILES": "CCCCCc1c2c(cc(O)c1C(=O)O)OC(=O)c1c(cc(OC)cc1C(=O)CCCC)O2",
    "TGT": "P. falciparum apicoplast DNA polymerase (Pf-apPOL) (Plasmodium falciparum)",
    "QUANTITY_UNIT": "%",
    "% inhibition Apo pol 10'": 18.1675
  },
  {
    "MOLECULE_SMILES": "Oc1cccnc1/N=C/c1cc(I)cc(I)c1O",
    "TGT": "P. falciparum apicoplast DNA polymerase (Pf-apPOL) (Plasmodium falciparum)",
    "QUANTITY_UNIT": "%",
    "% inhibition Apo pol 10'": 24.1498
  },
  {
    "MOLECULE_SMILES": "Nc1ncnc(NC2CCCCC2)c1[N+](=O)[O-]",
    "TGT": "P. falciparum apicoplast DNA polymerase (Pf-apPOL) (Plasmodium falciparum)",
    "QUANTITY_UNIT": "%",
    "% inhibition Apo pol 10'": -4.033
  }
]

# lookup: % inhibition Apo pol 10' of COc1ccc(C=C2Oc3c(ccc4c3CN(Cc3ccco3)CO4)C2=O)c(OC)c1 1.778

Entry O=C(Cc1cccs1)N1CCN(c2nc(CN3CCOCC3)cs2)CC1 please -2.34

Entry COc1ccc(-c2occ(C(=O)O)c2C(=O)O)cc1 please 12.66

Entry O=C(Nc1c2c(nn1-c1ccccc1)CSC2)c1ccco1 please 28.0848
